Would you kindly list protein stability index for each of these sequences?
- protocolText: protein stability index of a GFP-peptide fusion (GPS, HEK-293T) (PSI 1-6); higher = more stable;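 also: 24-mer peptide tiles fused after GFP, lentivirally expressed, FACS-sorted into six equal bins by GFP/DsRed ratio, decoded by Illumina sequencing, PSI is the read-weighted mean bin number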
- reportedConditions: treatment: DMSO; c terminus: a fixed tail appended
Numbers only.

Please review the entries below; each comes with its answer.
SADPARGLPRSRDCRVDLGSEVYR [PDLIM4] : 3.74
HGAHINLQSLKFQGGHGPAATLLR [RIPK4] : 2.65
EGSLQQPKAQSAMSPYLVPDTQAL [SMG5] : 4.39
RLCLPALSQMGAQSSGKILLCPLC [TRIM15] : 2.35
GGSGGGGGGDEDGSLGSRAEPAPR [SMAD6] : 5.38
QEQEIDGKSLLLMTRNDVLTGLQL [SAMD13] : 3.23

Now examine the next entry.
In: Tell me the measured protein stability index of ESTNPEKAHETLHQSLSLASSPKG [CDC25A] , please.
Out: 5.37

----------
- protocolText: protein stability index of a GFP-peptide fusion (GPS, HEK-293T) (PSI 1-6); higher = more stable
- reportedConditions: treatment: MLN4924 1 uM, 8 h; c terminus: a fixed tail appended
quantityKind: protein stability index
Answers are plain numbers.

Before answering, review these 2 worked examples.
RGDLWISWEEGMKVFEELLLDADW [CRY1] : 2.4
NNKYSYTSNSDDNMLKNIELFDKL [KCTD10] : 3.9

Need protein stability index for each of these sequences.
1. PASDLEAALEAAGEGLNVIQQTTR [NANOGP8]
2. YCKPTRLDLLLDMPPVSYDVQLLH [SPSB1]
3. IASSDSEVEIVGVQEHARCVHPRG [C18orf25]

Out:
4.95
2.14
4.6

----------
- protocolText: protein stability index of a GFP-peptide fusion (GPS, HEK-293T) (PSI 1-6); higher = more stable
- reportedConditions: treatment: DMSO; c terminus: a fixed tail appended
Kindly supply the reported protein stability index values for the records listed here.
One number for each entry.

Examples with answers:
EEFILLSQGEVEKLIKCDEIQVDS [KLHL12] : 4.49
WLSDWVTSYKVMVSNDSHTWVTVK [CPXM2] : 2.67
EPGPAAYGLKPLTPNSKYVKLNVG [KCTD13] : 3.66
DMKLIILANRLCLPHLVALTEQYT [RHOBTB2] : 3.8
PQDLAPQVSAHHRSQESLTSQESE [TBC1D10A] : 5.64

Please report protein stability index for every entry that follows.
1. RVDPTRVNEFGMSGEDPTAAAPVA [CLPTM1]
2. YYHRRNEMTTTDDLDFKHHNYKEM [CPXM2]
3. YIGFYGKETTNTCILKCNLCSVNI [PDS5B]
4. LDLILAILALELICSLICLLIYTV [TMEM192]
5. LEERLQLQFEAEMARLQEEHGDQL [MTUS2]

Out:
1. 4.98
2. 3.22
3. 2.98
4. 2.89
5. 5.4

Please supply protein stability index for each of the following items, keeping them in order.
1. DLLNVCMRHVEKMCKADLSRNFIE [TRIM29]
2. RSRKVSCPLTRSNGDLSRSLSPSP [FCHO1]
3. PAPCADGPAGGLADLSSGSSGEDD [PWWP2B]

Out:
1: 3.09; 2: 4.04; 3: 5.51

I'm hoping you can list protein stability index for every sequence here, please.
1. IPIHGKGNFPTMEVKPKDIIHVVK [TENT5D]
2. PTDRNLCHFQALGCRTTHSNQEVL [PYCR3]
3. VAVNNIGRGPPSEPVLTQTSEQAP [PTPRD]
4. GYQRKCYFISTVKRSWTSAQNACS [CD69]

Out:
1: 2.86; 2: 2.49; 3: 4.78; 4: 2.46

Dear colleague, could you please provide protein stability index for the sequences listed below?
1. TEDTPKVNADIEKVNQNQAKRCTV [NSDHL]
2. RAKLDELEGALHQAKEELARMLRE [KRT71]
3. MAVPPGHGPFSGFPGPQEHTQVLP [DYRK1B]
4. AGAFGYFQQDTKGLVDFRDVALAL [LPCAT4]
5. RLPFLSAFERQQVENRVVEEAKGL [ZBED1]
6. DLSHIEGLSQAPQPLADEGPPGRS [SERTAD1]
7. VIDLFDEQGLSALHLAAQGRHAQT [RIPK4]

Out:
5.42
2.97
3.75
1.98
4.17
5.11
3.05

----------
- protocolText: protein stability index of a GFP-peptide fusion (GPS, HEK-293T) (PSI 1-6); higher = more stable
- reportedConditions: treatment: MLN4924 1 uM, 8 h; c terminus: a fixed tail appended
Please provide measured protein stability index for the entries that follow.
Give bare numbers.

GTQFTFDQDPSVLYFSIHRYEQGR [HDAC6] : 2.52

List reported protein stability index for each of these sequences:
1. FGHRFIILDTDEYVLKYMESNAAQ [EFHC1]
2. TMTNYDEAAMAIASLNGYRLGERV [ELAVL3]
3. WCDGCKNHIGMGVRYNAEKKKVGN [YJU2B]
4. PAEAEGAAQELENQMKERQGLFFD [TMEM120A]
5. RLVESLSTQIRALTEQQEQLRGQL [RASAL3]
6. GSSGSYFVKDPQGRIIAVFKPKNE [PI4K2A]

Out:
1: 2.05; 2: 3.17; 3: 3.65; 4: 5.26; 5: 2.34; 6: 3.66

// input: 3 sequences below; output: protein stability index for each
1. LRVLPNLPCVVQEGAIVMARGRHV [PYCR3]
2. ILWDTLLRLCAWGLASWPLARGIH [POMT2]
3. QEQEIDGKSLLLMTRNDVLTGLQL [SAMD13]

Out:
2.73
3.27
3.36

// for each sequence in input: emit protein stability index
1. EWENNRESLIVFMEQVHRGIKGLV [CPXM2]
2. KQPLRKYVTPSDFDQLKQFLTFDK [EFHC1]
3. LPDVSLGRYAYVRGGGDPWTNGSG [MCOLN1]

Out:
1: 2.07; 2: 3.02; 3: 2.87

----------
- protocolText: protein stability index of a GFP-peptide fusion (GPS, HEK-293T) (PSI 1-6); higher = more stable
- reportedConditions: treatment: DMSO; c terminus: a fixed tail appended
Hi there, I'd appreciate the recorded protein stability index for every entry that follows.
Answers are plain numbers.

QSYFKTIEDFQQKILLTKSENARL [KRT36] : 3.05
ISGVTKAISSPTVSRLTDTTKFTG [TPPP] : 3.89
GLKADTLKERYQKIGDTKRNTPIE [CSNK1G1] : 4.36
GRTGTLIACYVMKHYRFTHAEIIA [CDC14A] : 2.74
AVVNELIDYGANVNQPNNNGFTPL [ANKRD44] : 3.05

Batch lookup, protein stability index per entry.
1. RAVNSLSMENANQENEEKEQVANK [BEX1]
2. LLDDGQQASPYHPGSCGAGAPSPG [ELF3]

Out:
1. 5.52
2. 4.71

----------
Exercise: state measured protein stability index for each of the sequences provided.
- protocolText: protein stability index of a GFP-peptide fusion (GPS, HEK-293T) (PSI 1-6); higher = more stable
- reportedConditions: treatment: DMSO; c terminus: a fixed tail appended
Answers are plain numbers.

TSSSDDDEEVSGSSKTITAEIPDG [C18orf25] : 5.59
GELRRRPGDMKTKMELLILETQAQ [CPOX] : 3.34
KRFASLSRFVETLVVADDKMAAFH [ADAMTS4] : 2.25
NHEALRQAKQEMNESRRQIQSLTC [PRPH] : 4.47
LTGLQLKLGPALKIYEYHVKPLQT [SAMD13] : 2.26

Hello, I would appreciate it if you could give protein stability index for each entry below.
1. LDVDTAAGGFQQRQGLKYCLPLTF [FBXO3]
2. MMSLTKLADKELVHMISWAKKIPG [ESR2]
3. WCDGCKNHIGMGVRYNAEKKKVGN [YJU2B]
4. SEIKNYNFQQPGFTSGTGHFTAMV [GLIPR2]

Out:
1: 2.42; 2: 2.17; 3: 3.67; 4: 2.41

Answer for every listed entry: what is its protein stability index? The entries follow.
1. NADGSYLCQCHEGFALNPDKKTCT [MATN2]
2. TFPKALTNGSFSPSGNNGSVNWRT [DLC1]
3. VNAVLTQIDQIKRHSNVVILTTSN [TRIP13]
4. FEEQENYFLLCDVLPEDRILREEL [ZNF277]

Out:
4.06
3.14
1.92
3.26

----------
- protocolText: protein stability index of a GFP-peptide fusion (GPS, HEK-293T) (PSI 1-6); higher = more stable
- reportedConditions: treatment: DMSO; c terminus: a fixed tail appended
Class Criterion met: protein stability index at least 3. Class Criterion not met: protein stability index below 3.

Some entries whose results are on file:
CSSRPLQKGSHPMCKEHEDEKINI [TRIM63] : Criterion met
KNSLFPSPISSISPGLHSFTDHQR [KCNK9] : Criterion met
LPSAQDINRLVGLQNTYMGYLDYR [GLT8D2] : Criterion not met

In: Threshold query (protein stability index >= 3) on ELNFISVFWPQLPNGLEAAYEFAD [MMP1]
Out: Criterion not met

In: Ok, now CCHRSQKGFPGCKLGLHDNHWVPA [FBXO34]
Out: Criterion not met

In: Then what about the sequence NIMTQNVERILARGENLEHLRNKT [VAMP8] ?
Out: Criterion met

In: HCKEKRKTSLLDQLTNTSGTVIGV [NETO1] , same question.
Out: Criterion met

In: Do the same for VVEATHMCMVMRGVQKMNSKTVTS [GCH1] please
Out: Criterion not met

In: And HFMVLSKSGPGDGFFSSAFQARLS [POMT2] ?
Out: Criterion not met

In: Same for LKERFAFLFNSELLSDVRFVLGKG [BTBD1]
Out: Criterion not met

In: Next sequence: TEEELRRIQTQKEQAKENENGELQ [ZC2HC1C]
Out: Criterion met
